Please respond with reported ELISA_avg for every item in the list.
# assayedSystem: T1, recombinant human CD123-Fc (human, UniProt P26951 19-305)
# T1 construct: not shown: Fc part of CD123-Fc
# T1 sequence: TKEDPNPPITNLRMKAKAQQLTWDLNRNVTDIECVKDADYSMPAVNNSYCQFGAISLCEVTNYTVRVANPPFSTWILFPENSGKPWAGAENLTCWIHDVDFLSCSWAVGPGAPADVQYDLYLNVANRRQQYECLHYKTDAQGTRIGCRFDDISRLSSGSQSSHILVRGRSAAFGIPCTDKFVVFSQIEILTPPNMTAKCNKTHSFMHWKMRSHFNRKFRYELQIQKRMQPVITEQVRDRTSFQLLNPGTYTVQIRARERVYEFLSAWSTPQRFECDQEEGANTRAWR
# experiment: phage ELISA, A450 target/A450 IgG1-Fc
Lab book: enter the figure in ratio, no units written.

Data request: Name the reported ELISA_avg value associated with the binder SEQ ID NO 733 (designed binder) MGSWFEFWDRLDAIEDRLYALGGSEAELAAFEKEIAAFESELQAYKGKGNPEVEELRDEAAWIRGTLQAYRHN
Data returned: 4.9

Data request: Consider next the binder SEQ ID NO 682 (designed binder) MGSWVEFRDRLDAIETRLWALGGSEAELAAFEKEIAAFESELQAYKGKGNPEVEWLRYEAAEIRMVLQAYRHN in the same way.
Data returned: 4.2

Data request: Also, SEQ ID NO 707 (designed binder) MGSWYEFEERLYAIEDRLYALGGSEAELAAFEKEIAAFESELQAYKGKGNPEVEFLRQEAADIRLMLQAYRHN please.
Data returned: 11.5

Data request: // repeat for SEQ ID NO 690 (designed binder) MGSWYEFMVRLDAIEERLFALGGSEAELAAFEKEIAAFESELQAYKGKGNPEVEFLREEAASIRYHLQAYRHN and report
Data returned: 4.1

Data request: Quick one: SEQ ID NO 717 (designed binder) MGSWYEFEWRLMAIEDRLWALGGSEAELAAFEKEIAAFESELQAYKGKGNPEVEYLRHEAAEIRDVLQAYRHN
Data returned: 3.4

Data request: Next up: SEQ ID NO 652 (designed binder) MGSWVEFYNRLDAIENRLWALGGSEAELAFFEELIAQFEFALQDYKGKGNPEVEALEDEADAIWEELMAYRHN
Data returned: 6.9

Data request: Repeat with SEQ ID NO 692 (designed binder) MGSWSEFEYRLFAIENRLDALGGSEAELAAFEKEIAAFESELQAYKGKGNPEVEFLREEAAMIRQLLQAYRHN
Data returned: 3.2

Data request: Param item: SEQ ID NO 709 (designed binder) MGSWIEFESRLWAIEDRLLALGGSEAELAAFEKEIAAFESELQAYKGKGNPEVEFLRLEAADIREDLQAYRHN
Data returned: 8.7

Data request: Same thing, different binder: SEQ ID NO 672 (designed binder) MGSWDEFWDRLDAIEDRLFALGGSEAELADFERVIAWFENDLQEYKGKGNPEVEALDNEADAIRIELHAYRHN
Data returned: 3.9

Data request: Repeat for the following binder: SEQ ID NO 710 (designed binder) MGSWFEFEDRLDAIWDRLWALGGSEAELAAFEKEIAAFESELQAYKGKGNPEVEFLRMDAAMIRYILQAYRHN
Data returned: 5.1

All figures here come from patent US20230125550A1.
